Overview of reported Vmax across a group of compounds:
TARGET_UNDER_TEST: TDP1 (Homo sapiens, UniProt Q9NUW8)
Construct: made in house; host or cells: E. coli
Sequence (Q9NUW8 whole entry): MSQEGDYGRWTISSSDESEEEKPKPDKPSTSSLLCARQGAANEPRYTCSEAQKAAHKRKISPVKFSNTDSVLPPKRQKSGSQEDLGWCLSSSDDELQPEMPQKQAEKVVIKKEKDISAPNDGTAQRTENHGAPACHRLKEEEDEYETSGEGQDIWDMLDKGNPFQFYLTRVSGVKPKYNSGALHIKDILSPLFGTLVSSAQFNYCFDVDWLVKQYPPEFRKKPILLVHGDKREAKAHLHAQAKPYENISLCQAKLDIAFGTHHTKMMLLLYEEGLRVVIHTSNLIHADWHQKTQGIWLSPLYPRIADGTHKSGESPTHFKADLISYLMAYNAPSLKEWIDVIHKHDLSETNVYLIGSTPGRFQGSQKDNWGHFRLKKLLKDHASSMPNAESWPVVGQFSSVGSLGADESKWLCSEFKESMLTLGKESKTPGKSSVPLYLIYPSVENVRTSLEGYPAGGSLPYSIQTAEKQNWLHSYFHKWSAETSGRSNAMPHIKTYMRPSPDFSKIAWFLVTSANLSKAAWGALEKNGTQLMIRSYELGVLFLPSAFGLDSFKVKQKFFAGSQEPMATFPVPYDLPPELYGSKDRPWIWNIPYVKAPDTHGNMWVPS
TEST_PROTOCOL: Steady-state kinetics of the TDP1 reaction (Vmax, KM, type of inhibition)
Format: biochemical
Parameters: unit not given here
RECORDED_CONDITIONS: inhibitor 1.6 mM (so in the source)

| COMPOUND | Vmax |
| --- | --- |
| CC(=O)C1=C(O)C=C2Oc3c(C(=O)CSc4ccc(Cl)cc4)c(O)c(C)c(O)c3C2(C)C1=O (stereo not shown) [7h] | 18.5 |
| CC(=O)C1=C(O)C=C2Oc3c(C(=O)C[S+]([O-])c4nc5ccccc5s4)c(O)c(C)c(O)c3[C@@]2(C)C1=O (stereo partly shown) [10a] | 26.5 |
| CC(=O)C1=C(O)C=C2Oc3c(C(=O)C[S+]([O-])c4ccc(Cl)cc4)c(O)c(C)c(O)c3[C@@]2(C)C1=O (stereo partly shown) [10b] | 6.3 |
| CC(=O)C1=C(O)C=C2Oc3c(C(=O)CSc4nc5ccccc5s4)c(O)c(C)c(O)c3C2(C)C1=O (stereo not shown) [7g] | 23.0 |

----------
TEST_PROTOCOL: EZ4U colorimetric cytotoxicity test, HEK293A
Assay type: cell-based
RECORDED_CONDITIONS: human, wild-type HEK293A cells; HEK293 wild type, intrinsic cytotoxicity (Figure 6); read-out: CC50
OUTCOME_MEASURE: CC50 at 3 days

| COMPOUND | OBS_VALUE |
| --- | --- |
| CC(=O)C1=C(O)C=C2Oc3c(C(=O)C[S+]([O-])c4nc5ccccc5s4)c(O)c(C)c(O)c3[C@@]2(C)C1=O (stereo partly shown) [10a] | 15 to 20 µM |

# credit: paper PMC8583042
